# System: KB-V-1 drug-resistant cell line
# Method notes: [3H]vinblastine accumulation assay in KB-V-1 drug-resistant cells
# Format: cell-based, human
# Condition label: Table 1; compound 20 μM, 30 minutes, 37° C., serum-free DMEM; drug-resistant cells
Measured metric: Accumulation of [3H]vinblastine, KB-V-1 (pmole/mg protein)

[[record]]
molecule = "Ic1ccc2c(c1)C(=C1CCN(CC3CC3)CC1)c1ccccc1C=C2"
measure_unit = "pmole/mg protein"
test_value = 2.91

[[record]]
molecule = "COc1ccc(CCN(C)CCCC(C#N)(c2ccc(OC)c(OC)c2)C(C)C)cc1OC (centres unmarked) [Verapamil, reference compound]"
measure_unit = "pmole/mg protein"
test_value = 2.21

[[record]]
molecule = "FC(F)(F)Sc1ccc2c(c1)C(=C1CCN(CC3CC3)CC1)c1ccccc1C=C2"
measure_unit = "pmole/mg protein"
test_value = 0.91

[[record]]
molecule = "COc1cc(N)c(Cl)cc1C(=O)NCc1ccc2c(c1)C(=C1CCN(C)CC1)c1ccccc1C=C2"
measure_unit = "pmole/mg protein"
test_value = 3.47

[[record]]
molecule = "CCOC(=O)C1=C(C)NC(C)=C(C(=O)OCC)C1c1ccc2c(c1)C(=C1CCN(C)CC1)c1ccccc1C=C2"
measure_unit = "pmole/mg protein"
test_value = 2.13


* * *

# Tested on: KB-3 drug-sensitive cell line
# Method notes: [3H]vinblastine accumulation assay in KB-3 drug-sensitive cells
# Assay type: cell-based, human
# Condition label: Table 1, compound 20 μM, 30 minutes, 37° C., serum-free DMEM
Label satisfied for high-side Accumulation of [3H]vinblastine, KB-3 (at or above 8 pmole/mg protein) and not satisfied for low-side Accumulation of [3H]vinblastine, KB-3 (below it).

[[record]]
compound = "COc1ccc(CCN(C)CCCC(C#N)(c2ccc(OC)c(OC)c2)C(C)C)cc1OC (stereo not drawn) [Verapamil, reference compound]"
system_under_test = "KB-3 drug-sensitive cell line"
label_value = "not satisfied"

[[record]]
compound = "FC(F)(F)Sc1ccc2c(c1)C(=C1CCN(CC3CC3)CC1)c1ccccc1C=C2"
system_under_test = "KB-3 drug-sensitive cell line"
label_value = "satisfied"

[[record]]
compound = "Ic1ccc2c(c1)C(=C1CCN(CC3CC3)CC1)c1ccccc1C=C2"
system_under_test = "KB-3 drug-sensitive cell line"
label_value = "not satisfied"

[[record]]
compound = "CCOC(=O)C1=C(C)NC(C)=C(C(=O)OCC)C1c1ccc2c(c1)C(=C1CCN(C)CC1)c1ccccc1C=C2"
system_under_test = "KB-3 drug-sensitive cell line"
label_value = "not satisfied"

[[record]]
compound = "COc1cc(N)c(Cl)cc1C(=O)NCc1ccc2c(c1)C(=C1CCN(C)CC1)c1ccccc1C=C2"
system_under_test = "KB-3 drug-sensitive cell line"
label_value = "not satisfied"

